Target: T1, human CD33 extracellular domain with 6xHis-tag (human, UniProt P20138 18-259)
T1 construct: Bought (R&D Systems, Acro Biosystems); also called huCD33-His; huCD33(ECD)-His
T1 sequence (P20138 other isoform, or with tags, fused parts or gaps): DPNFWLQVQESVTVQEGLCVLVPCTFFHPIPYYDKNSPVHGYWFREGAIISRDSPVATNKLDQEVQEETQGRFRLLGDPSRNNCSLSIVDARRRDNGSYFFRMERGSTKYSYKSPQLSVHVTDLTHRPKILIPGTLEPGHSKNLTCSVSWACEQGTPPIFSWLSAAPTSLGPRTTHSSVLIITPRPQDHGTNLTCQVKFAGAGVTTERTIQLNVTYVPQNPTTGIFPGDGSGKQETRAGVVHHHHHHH
Assay: BLI (Octet Red96e), antibody on anti-huFc sensor, huCD33-His as analyte, 1:1 fit
Consider the following binders and their measured Kd readings.
Hi! Could you send only the number? It should be in nM, unit omitted.

The following binders have reported results that may help.
>  <BINDER>
TDI-Y-007 (antibody, V domains shown, also called 4B2 (recombinant, human IgG1 constant region)) VH: EVHLLESGGGLVQPGGSLRLSCAASGFIFSSNAMSWVRQAPGKGLEWVSAISGYGGNTYYADSVKGRFTISRDNSKNTLYLQMNSLRAEDTAVYYCAKWGTYIVGATGDYWGQGTLVTVSS VL: QSALTQPPSASGSPGQSVTISCTGTSNDVGGYNYVSWYQQHPGKAPKLLIYEVSKRPSGVPDRFSGSQSGNTASLTVSGLQAEDEADYYCSSYAGSNNWVFGGGTKLTVL

>  <Kd [nM]>
1.29

$$$$
>  <BINDER>
1J19 (recombinant, human IgG1 constant region) (antibody, V domains shown) VH: QVQLQQSGPGLVKPSQTLSLTCAISGDSVSSNSAAWNWIRQSPSRGLEWLGRTYFRSKWYNVYAVSVKSRITINPDTSKNQFSLQLNSVTPEDTAVYYCASEGGSYYDHWGQGTLVTVSS VL: DIQMTQSPSSVSASVGDRVTITCRASQGISNWLTWYQQKPGKAPKLLIYAASSLQSGVPSRFSGSGSGTDFTLTISSLQPEDFATYYCQQADSFPFTFGPGTKVDIK

>  <Kd [nM]>
1.1

$$$$
>  <BINDER>
H195 (lintuzumab) (antibody, V domains shown) VH: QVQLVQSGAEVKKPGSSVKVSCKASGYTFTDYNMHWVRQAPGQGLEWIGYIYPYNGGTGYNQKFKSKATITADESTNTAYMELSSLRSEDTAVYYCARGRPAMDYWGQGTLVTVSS VL: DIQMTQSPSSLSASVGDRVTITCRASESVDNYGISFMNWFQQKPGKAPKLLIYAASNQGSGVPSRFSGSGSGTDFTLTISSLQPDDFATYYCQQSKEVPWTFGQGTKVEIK

>  <Kd [nM]>
1.22

$$$$

Query: For TDI-Y-006 (antibody, V domains shown, also called 3P14 (recombinant, human IgG1 constant region)) VH: EVQLLESGGGLVQPGGSLRLSCAASGFTFSTYAMSWVRQAPGKGLEWVSAISGRGGSTYYTDSVKGRFTISRDNSKNTVSLQMNSLRAEDTAVYYCAGRGDYYYYYGMDVWGQGTTVTVSA VL: DIVMTQSPLSSPVTLGQPASFSCRSSQSLVYSDGNTYLSWLQQRPGQPPRLLIYKISNRFSGVPDRFSGSGAGTDFTLKISRVEAEDVGVYYCMQSTQFPHTFGQGTKLEIK , write its Kd.
Response: 1.21
